Each record here notes measured cell viability.
test system: ML-2; experiment: cell viability (% survival relative to DMSO control, bortezomib = 0%); higher = less cytotoxic; settings: 100 nM; 72 h
Form entry: value (%) — number only.

Solved entries (count: 5):
Cc1c(-c2ccc(-c3ccccc3F)cc2)nc2ccc(F)cc2c1C(=O)O [Brequinar]; 88.9
C[C@](N)(Cc1ccc(O)cc1)C(=O)O [Metirosine]; 107
COc1ccc(-c2ccccc2)cc1NS(=O)(=O)c1cc(Cl)cc(Cl)c1O; 102
O[C@H]1[C@H]2[C@H](O)CCCN2C[C@H]1O [Swainsonine]; 108
COc1cc(/C=C/C(=O)N2CCC=CC2=O)cc(OC)c1OC [Piperlongumine]; 92.8

Return cell viability for the following compound: CN(C)c1cc(NC(=O)CNC(C)(C)C)c(O)c2c1C[C@H]1C[C@H]3[C@H](N(C)C)C(=O)C(C(N)=O)C(=O)[C@@]3(O)C(=O)C1C2=O (some centres undefined) [Tigecycline]
90.8

Return cell viability for the following compound: CCCCCCCCCCCC(=O)c1c(O)c(C(=O)CCCCCCCCCCC)c(O)c(C2CC(c3ccc(O)cc3)Oc3cc(O)ccc32)c1O (centres undefined)
118

Return cell viability for the following compound: COc1ccc(CNC(=O)Nc2ncc([N+](=O)[O-])s2)cc1
107

Return cell viability for the following compound: O=C(NNc1ccccc1)c1ccncc1 [PluriSln 1]
92.8

Return cell viability for the following compound: CC(C)c1cc2c(c(O)c1O)[C@@]1(C(=O)O)CCCC(C)(C)[C@@H]1CC2 [Carnosic acid]
85.9

Return cell viability for the following compound: O=C1O[C@H]([C@@H](O)CO)C(O)=C1O [Vitamin C (ascorbate)]
100

Return cell viability for the following compound: CCCCCCCCCCC[C@@H](C[C@@H]1OC(=O)[C@H]1CCCCCC)OC(=O)[C@H](CC(C)C)NC=O [Orlistat]
93.6

Return cell viability for the following compound: O=C1c2cc([N+](=O)[O-])ccc2-n2c1nc1ccccc1c2=O [GNF-Pf-3777]
97.8

Return cell viability for the following compound: N#CC(C#N)=NNc1ccc(OC(F)(F)F)cc1 [FCCP]
105

----------
system: SHI-1; assay: cell viability (% survival relative to DMSO control, bortezomib = 0%); higher = less cytotoxic; conditions: 1 nM; 72 h
value-type: cell viability

Solved entries (count: 7):
CC[C@@]1(O)C(=O)OCc2c1cc1n(c2=O)Cc2cc3c(CN(C)C)c(O)ccc3nc2-1; 97.1%
Cc1cn([C@H]2C[C@H](O)[C@@H](COP(=O)(O)OP(=O)(O)O)O2)c(=O)[nH]c1=O [Thymidine diphosphate]; 96.2%
CC(C)c1cc2c(c(O)c1O)[C@@]1(C(=O)O)CCCC(C)(C)[C@@H]1CC2; 101%
O=C1c2cc([N+](=O)[O-])ccc2-n2c1nc1ccccc1c2=O; 99.9%
CC1(C)[C@@H](O[C@H]2O[C@H](C(=O)O)[C@@H](O)[C@H](O)[C@H]2O[C@@H]2O[C@H](C(=O)O)[C@@H](O)[C@H](O)[C@H]2O)CC[C@]2(C)[C@H]3C(=O)C=C4[C@@H]5C[C@@](C)(C(=O)O)CC[C@]5(C)CC[C@@]4(C)[C@]3(C)CC[C@@H]12; 95.5%
O=C(O)c1cc(N=Nc2ccc(S(=O)(=O)Nc3ccccn3)cc2)ccc1O; 107%
NCCCC(N)(C(=O)O)C(F)F (stereo not drawn); 100%

Return cell viability for the following compound: Cl.NC(CCC(=O)Nc1ccc([N+](=O)[O-])cc1)C(=O)O (stereo not drawn)
107%

----------
test system: HL-60; assay: cell viability (% survival relative to DMSO control); higher = less cytotoxic; conditions: 0.001 µM; 72 h; co-treatment: AZD3965 100 nM
Each record here notes measured cell viability.
Form entry: value (%) — number only.

CN(C)c1cc(NC(=O)CNC(C)(C)C)c(O)c2c1C[C@H]1C[C@H]3[C@H](N(C)C)C(=O)C(C(N)=O)C(=O)[C@@]3(O)C(=O)C1C2=O (stereo partly drawn); 103
O=C(O)C(=O)CBr; 99.1

Return cell viability for the following molecule: Oc1ccc(Nc2nc(-c3ccc(Cl)cc3)cs2)cc1
101

----------
Each record here notes measured cell viability.
test system: myeloid leukemia patient primary cells Pat.7; assay: cell viability (% survival relative to DMSO control); higher = less cytotoxic; settings: 10000 nM; 72 h
Form entry: value (%) — number only.

Solved entries (count: 3):
O=C(O)Cn1nnc(-c2cc(N3CCC(Oc4cc(F)ccc4Br)CC3)no2)n1 [MK-8245]; 56.7
C=C(C)[C@H]1Cc2c(ccc3c2O[C@@H]2COc4cc(OC)c(OC)cc4[C@@H]2C3=O)O1 [Rotenone]; 1.21
CCC(=O)N1CCN(c2ccc(-n3c(=O)ccc4cnc5ccc(-c6cnc7ccccc7c6)cc5c43)cc2C(F)(F)F)CC1 [Torin1]; 37.6

For the next question, use this compound.
Return cell viability for the following compound: COc1cc(/C=C/C(=O)N2CCC=CC2=O)cc(OC)c1OC [Piperlongumine]
57

----------
Each record here notes measured cell viability.
system: BV-173; assay: cell viability (% survival relative to DMSO control, bortezomib = 0%); higher = less cytotoxic; details: 100 nM; 72 h
Form entry: value (%) — number only.

Solved entries (count: 4):
Cc1ccccc1C(C(=O)NC1CCCCC1)N(C(=O)Cn1ccnc1C)c1cccc(F)c1 (stereo not given); 107
CCCCCCCCCCC[C@@H](C[C@@H]1OC(=O)[C@H]1CCCCCC)OC(=O)[C@H](CC(C)C)NC=O; 79.9
N#CC(C#N)=NNc1ccc(OC(F)(F)F)cc1; 96.7
CC[C@H](C)C(=O)O[C@H]1C[C@@H](C)C=C2C=C[C@H](C)[C@H](CC[C@@H]3C[C@@H](O)CC(=O)O3)[C@H]21; 95.3

For the next question, use this compound.
Return cell viability for the following compound: O=C(NNc1ccccc1)c1ccncc1
97

----------
tested on: NOMO-1; experiment: cell viability (% survival relative to DMSO control, bortezomib = 0%); higher = less cytotoxic; conditions: 10000 nM; 72 h
# note: boundary value 90% maps to no (0); cell viability below it maps to yes (1)

CCCCC/C=C\C/C=C\C/C=C\C/C=C\CCCCN1C(=O)C=CC1=O [N-Arachidonylmaleimide]; no (0)
COc1cc(/C=C/C(=O)N2CCC=CC2=O)cc(OC)c1OC [Piperlongumine]; yes (1)
COc1ccc(-c2ccccc2)cc1NS(=O)(=O)c1cc(Cl)cc(Cl)c1O; no (0)
O=C1c2cc([N+](=O)[O-])ccc2-n2c1nc1ccccc1c2=O [GNF-Pf-3777]; yes (1)
Nc1ccccc1C(=O)C[C@H](N)C(=O)O [L-Kynurenine]; no (0)

Now, please, on to the next compound.
State whether 90% exceeds cell viability recorded for C=C(C=NNC(=N)N)NNC(=N)N [Mitoguazone] .
yes (1)

----------
test system: BV-173; test: cell viability (% survival relative to DMSO control); higher = less cytotoxic; details: drug1 concentration 500 nM; drug2 concentration 10 nM; 72 h
value-type: cell viability

O=C(C1CC1)N1CC[C@@H](C=C2NNC(=O)N2c2ccc(-c3ccc4occc4c3)cc2)C1 + O=C(c1c2ccccc2cc2ccccc12)N1CCC(N2CCC[C@@H](C(=O)N3CCOCC3)C2)CC1 [CP-640186]; > 100%

Return cell viability for the following molecule: CC(C)c1onc(-c2c(Cl)cccc2Cl)c1COc1ccc(/C=C/c2cccc(C(=O)O)c2)c(Cl)c1 [GW4064] + Cn1cc(-c2ccncc2)c(-c2ccc(OCc3ccc4ccccc4n3)cc2)n1
> 100%

Return cell viability for the following molecule: O=C(C1CC1)N1CC[C@@H](C=C2NNC(=O)N2c2ccc(-c3ccc4occc4c3)cc2)C1 + C[C@H](NC(=O)c1sccc1OCc1ccc(Cl)cc1)c1ccccc1 [as1949490]
> 100%

Return cell viability for the following molecule: O=C(C1CC1)N1CC[C@@H](C=C2NNC(=O)N2c2ccc(-c3ccc4occc4c3)cc2)C1 + CS(=O)(=O)N1CCN(Cc2cc3nc(-c4cccc5[nH]ncc45)nc(N4CCOCC4)c3s2)CC1 [Pictilisib]
95.5%

----------
test system: HL-60; experiment: cell viability (% survival relative to DMSO control); higher = less cytotoxic; details: 0.01 µM; 72 h; co-treatment: AZD3965 100 nM
value-type: cell viability
Quick note: number first, unit second.

Solved entries (count: 2):
O=C(NNc1ccccc1)c1ccncc1; 101%
CN(C)C(=O)[C@H](O)[C@H](Cc1ccccc1)NC(=O)c1cc2cc(Cl)ccc2[nH]1; 101%

Return cell viability for the following molecule: N#CC(C#N)=NNc1ccc(OC(F)(F)F)cc1
102%

Return cell viability for the following molecule: NCCCC(N)(C(=O)O)C(F)F (stereo not drawn)
101%

Return cell viability for the following molecule: CC(C)(O)CNc1nc(Nc2ccnc(C(F)(F)F)c2)nc(-c2cccc(C(F)(F)F)n2)n1
105%

Return cell viability for the following molecule: COc1ccc(S(=O)(=O)N2CCN(S(=O)(=O)c3ccc4c(c3)OCCO4)CC2)cc1
96.5%

Return cell viability for the following molecule: O=C(O)C(=O)CBr
101%

Return cell viability for the following molecule: Cn1cc(-c2ccncc2)c(-c2ccc(OCc3ccc4ccccc4n3)cc2)n1
101%
